Values compiled from PubChem BioAssay AID602393.

- PROTOCOL NOTES: Bmi1 luciferase reporter increase in mESCs, primary screen, esBAF inhibitor project, mouse ES cells, Bmi1 luciferase knock-in, single point (AID 602393);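 further: 0% = median of the plate's neutral control wells and 100% = double that signal; a rise in the Bmi1 reporter signal indicates esBAF inhibition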
- RUN CONDITIONS: 24 h, at 12.5 µM, stronger effect = higher value, 100% = twice the neutral-well signal
Screen size: about 350,000 compounds; about 7,000 (2%) were called active. Only a selection was taken, and actives are over-represented in it overall.
Measured reporter increase by item
Just the number please, in %, no unit attached.

Worked examples follow.
compound_structure=C[C@@H]1CCCCO[C@H](CN(C)C(=O)Cc2ccccc2)[C@@H](C)CN([C@@H](C)CO)C(=O)c2cc(NC(=O)c3ccccc3)ccc2O1 units=% observed_result=-0.116
compound_structure=O=C(C[C@@H]1CC[C@@H](NC(=O)C2CCOCC2)[C@H](CO)O1)Nc1ccc(-c2ccccc2)cc1 units=% observed_result=8.43
compound_structure=CCCN1C[C@@H](C)[C@H](OC)CN(C)C(=O)c2ccc(NC(=O)C3CCOCC3)cc2OC[C@@H]1C units=% observed_result=-4.1

Next up:
Challenge: Name the reported reporter increase value associated with the compound CC(C)NC(=O)N[C@H]1C=C[C@H](CC(=O)NCCN2CCCC2)O[C@@H]1CO
Response given: -2.39

###

Measured reporter increase by item
- PROTOCOL NOTES: Bmi1 luciferase reporter increase in mESCs, primary screen, esBAF inhibitor project, mouse ES cells, Bmi1 luciferase knock-in, single point (AID 602393)
- RUN CONDITIONS: 24 h, at 12.5 µM, stronger effect = higher value, 100% = twice the neutral-well signal
The campaign covered roughly 350,000 compounds. About 7,000 (2%) were called active. What follows is part of a selection rich in actives, with near analogues and random picks from the rest.
Just the number please, in %, no unit attached.

Worked examples follow.
compound_structure=Cc1ccc(-c2cc(=O)c3ccc(F)cc3[nH]2)cc1 units=% observed_result=47.2
compound_structure=COc1ccc(CCNC(=O)c2c(C)nn(-c3ccccc3)c2Cl)cc1 units=% observed_result=-5.69
compound_structure=Cc1ccc(S(=O)(=O)N(C)C[C@@H]2OCCCC[C@@H](C)Oc3ccc(NC(=O)Nc4ccc(C(F)(F)F)cc4)cc3C(=O)N([C@@H](C)CO)C[C@@H]2C)cc1 units=% observed_result=1.3
compound_structure=O=c1cc(-c2ccccc2)[nH]c2cc(F)ccc12 units=% observed_result=7.27

Next up:
Challenge: Name the reported reporter increase value associated with the molecule Cc1nn(-c2ccccc2)c(Cl)c1/C=N/NC(=O)c1nn(C)cc1[N+](=O)[O-]
Response given: 52.5

###

- PROTOCOL NOTES: Bmi1 luciferase reporter increase in mESCs, primary screen, esBAF inhibitor project, mouse ES cells, Bmi1 luciferase knock-in, single point (AID 602393);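 further: 0% = median of the plate's neutral control wells and 100% = double that signal; a rise in the Bmi1 reporter signal indicates esBAF inhibition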
- RUN CONDITIONS: 24 h, at 12.5 µM, 100% = twice the neutral-well signal
Screen size: about 350,000 compounds; about 7,000 (2%) were called active. No stated cut-off is given here; in the data, active means activation above about 40%; inconclusive means no clear call, values can overlap the other calls; inactive means below that. What follows is part of a selection rich in actives, with near analogues and random picks from the rest.
Output constraint: value belongs to active, inactive

As a guide, the following entries are already answered.
compound=CC(C)c1ccc(S(=O)(=O)NC2CCCC2)cc1 classification=inactive
compound=CC(C)=C1SC(N2CCN(c3cccc(C)c3)CC2)=NC1=O classification=inactive
compound=CCN1C(=O)/C(=C2\SC(N3CCCCC3)=NC2=O)c2ccccc21 classification=active
compound="CCC1([N+](=O)[O-])COC(c2ccc(C(C)C)cc2)OC1 (stereo not given)" classification=active

Moving on to the next compound.
Challenge: Tell me the recorded outcome of this test for CCCNC(=O)Nc1ccc2c(c1)C(=O)N(C)C[C@H](OC)[C@H](C)CN(Cc1cccnc1)[C@@H](C)CO2 .
Response given: inactive

###

- PROTOCOL NOTES: Bmi1 luciferase reporter increase in mESCs, primary screen, esBAF inhibitor project, mouse ES cells, Bmi1 luciferase knock-in, single point (AID 602393);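 further: 0% = median of the plate's neutral control wells and 100% = double that signal; a rise in the Bmi1 reporter signal indicates esBAF inhibition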
- RUN CONDITIONS: 24 h, at 12.5 µM, 100% = twice the neutral-well signal
Hit rate of the full screen: of about 350,000 compounds, about 7,000 (2%) were called active. Cut-off read from the data, not from the text of the source: active = activation above about 40%; inconclusive = no clear call, values can overlap the other calls; inactive = below that. The entries come from a sample that favours actives as a whole.
Output constraint: value belongs to T (active), F (inactive)

As a guide, the following entries are already answered.
compound_structure=CCOc1ccc2c(c1)C(c1ccc(C)cc1)=NNC(c1ccc(C)cc1)=N2 classification=T
compound_structure=c1ccc(CCN2CN=C(Nc3nc4ccccc4o3)NC2)cc1 classification=T
compound_structure=COc1cccc(CNc2nc3nc4c(c(=O)n3[nH]2)CCC4)c1 classification=F
compound_structure=COc1ccc(S(=O)(=O)N[C@@H]2CC[C@@H](CC(=O)NCCc3ccccc3)O[C@@H]2CO)cc1 classification=F
compound_structure=CCCN1C[C@H](C)[C@@H](OC)CN(C)C(=O)c2ccc(NC(=O)C3CCOCC3)cc2OC[C@H]1C classification=F
compound_structure=Nc1cc(N)nc(SCc2cccc(F)c2)n1 classification=T
compound_structure=N#CNC1=NCN(CCc2ccccc2)CN1 classification=F
compound_structure=COc1ccc(-c2nnc(NC(=O)CS(=O)(=O)c3ccc(Cl)cc3)o2)c(OC)c1 classification=F
compound_structure=COc1ccc(-c2nnc(SCC(=O)c3cccs3)o2)c(OC)c1 classification=T
compound_structure=CO[C@@H](CN(C)C(=O)c1cnccn1)[C@@H](C)CN([C@@H](C)CO)S(=O)(=O)c1ccc(Cl)cc1 classification=F

Challenge: Tell me the recorded outcome of this test for COc1cc(/C=N/N2CCN(c3ccccc3)CC2)ccc1OC(C)=O .
Response given: F

Challenge: Follow-up item: O=C(CN1CCCCCC1)Nc1ccc(Br)cc1Br
Response given: T

Challenge: Follow-up item: CCc1nnc(SCc2cccc(F)c2)nc1CC
Response given: F

Challenge: Follow-up item: COc1ccccc1-c1nnc(SCC(=O)Nc2ccccc2)o1
Response given: T

Challenge: Follow-up item: Nc1cc(N)nc(SCc2ccc(Cl)cc2)n1
Response given: F

Challenge: Follow-up item: C[C@@H](NC(=O)C[C@H]1C[C@H]2c3cc(NC(=O)Nc4ccccc4F)ccc3O[C@H]2[C@@H](CO)O1)c1ccccc1
Response given: F

Challenge: Follow-up item: COc1cccc(C(=O)Nc2cccnc2)c1OC
Response given: F

Challenge: Follow-up item: CNC(=O)c1sc(NCc2ccccc2OC)nc1C
Response given: F

Challenge: Follow-up item: O=C(c1ccncc1)N1C[C@H]2[C@@H](c3ccccc31)[C@H](CO)N2Cc1ccc(F)cc1
Response given: F

Challenge: Follow-up item: COc1ccc(/C=C/C(=O)c2cc(Br)ccc(=O)c2O)cc1
Response given: F

Challenge: Follow-up item: COCOc1cc(O)c(C(=O)/C=C/c2ccc(OCOC)c(OCOC)c2)c(OCOC)c1
Response given: F

Challenge: Follow-up item: C[C@H](CO)N1C[C@H](C)[C@@H](CN(C)Cc2ccc(C(=O)O)cc2)Oc2ccc(NS(=O)(=O)c3cn(C)cn3)cc2CC1=O
Response given: F

Challenge: Follow-up item: CNC(=O)C[C@H]1CC[C@@H]2[C@@H](COc3ccc(NC(=O)c4ccc(F)c(F)c4)cc3C(=O)N2C)O1
Response given: F

Challenge: Follow-up item: CC(C)NC(=O)N(C)C[C@H]1Oc2c(NC(=O)c3ccncc3)cccc2C(=O)N([C@@H](C)CO)C[C@H]1C
Response given: F

###

- PROTOCOL NOTES: Bmi1 luciferase reporter increase in mESCs, primary screen, esBAF inhibitor project, mouse ES cells, Bmi1 luciferase knock-in, single point (AID 602393);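 further: 0% = median of the plate's neutral control wells and 100% = double that signal; a rise in the Bmi1 reporter signal indicates esBAF inhibition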
- RUN CONDITIONS: 24 h, at 12.5 µM, stronger effect = higher value, 100% = twice the neutral-well signal
Out of some 350,000 compounds screened, about 7,000 (2%) were called active. For the sample, actives were picked, then their nearest neighbours and some compounds at random.
Measured reporter increase by item
Just the number please, in %, no unit attached.

compound_structure=CCOC(=O)c1cn(CC(=O)Nc2ccc(C(C)C)cc2)nn1 units=% observed_result=-4.55

Challenge: Name the reported reporter increase value associated with the molecule O=C1c2ccccc2C(=O)N1CCCCCCN1C(=O)c2ccccc2C1=O
Response given: 5.74

Challenge: Follow-up item: O=C(OCCN1C(=O)c2ccccc2C1=O)Oc1ccccc1
Response given: -11.2

Challenge: Follow-up item: CCC(=O)Nc1ccc2c(c1)C(=O)N(C)[C@@H]1CC[C@@H](CC(=O)Nc3cccc(OC)c3)O[C@@H]1CO2
Response given: -2.81

Challenge: Follow-up item: Cc1ccc(-c2cnc3c(c2)C(=O)N([C@H](C)CO)C[C@@H](C)[C@@H](CN(C)C(=O)CN(C)C)O3)cc1
Response given: -1.4

Challenge: Follow-up item: CCOC(=O)c1[nH]c2ccc(C)cc2c1N=C(C)N(C)C
Response given: 1.77

Challenge: Follow-up item: COc1ccc(/C=N/Nc2nc(-c3ccc(C)cc3)c(C#N)c(=O)[nH]2)cc1
Response given: -5.86

Challenge: Follow-up item: C[C@@H]1CN([C@H](C)CO)C(=O)c2cccc(NS(=O)(=O)c3ccc(F)cc3)c2O[C@@H]1CN(C)S(=O)(=O)c1ccc(Cl)cc1
Response given: 0.559

Challenge: Follow-up item: Cc1noc(C)c1COC(=O)c1cc2ccccc2cc1O
Response given: -1.05

Challenge: Follow-up item: Cc1cccc(N2O[C@H]3C=CC2CCCC3)n1
Response given: 56.9

Challenge: Follow-up item: O=C(O)C[C@@H]1C[C@@H]2c3cc(NC(=O)Nc4ccccc4)ccc3O[C@@H]2[C@H](CO)O1
Response given: 2.21

Challenge: Follow-up item: CCc1ccc(NC(=O)Cn2ncn3c(cc4ccccc43)c2=O)cc1
Response given: -6.55
